TEST NAME: apoptosis induction in A1-reliant human Mel501 line – Mel501 cells, luminescence, dry powder, set 2, orthogonal assay for A1 inhibitor project, dose response (AID 504365)
EXPERIMENTAL SETUP: Mel501 cells, caspase-3/7 Glo luminescence, 6 h; at 35 µM (top of the series)
Assignment: determine reported caspase activation for the given compounds.
Form entry: value (%) — number only.

Look up caspase activation: Cc1ccc(Sc2c([N+](=O)[O-])c(=O)n(Cc3ccccc3)c3ccccc23)cc1
-2.41

Same read-out for Cn1c(=O)c([N+](=O)[O-])c(Sc2ccccn2)c2ccccc21 ?
-1.77

Further, for COc1c([N+](=O)[O-])c(=O)n(C)c2ccccc12 ?
-0.501

// repeat for Cc1ccc(Sc2c(Sc3ccc(C)cc3)c3ccccc3n(C)c2=O)cc1 and report
-1.69

Then this compound: Cc1ccc(Sc2c([N+](=O)[O-])c(=O)n(C)c3ccccc23)cc1
-1.78

And the next one, Cn1c(=O)c([N+](=O)[O-])c(S(C)(=O)=O)c2ccccc21 ?
-1.8

For COCCn1c(=O)c([N+](=O)[O-])c(Cl)c2ccccc21 then?
6.5

Same question for COCCn1c(=O)c(Sc2ccc(C)cc2)c(Sc2ccc(C)cc2)c2ccccc21 please.
-1.29

// next record C/C(=N\Nc1nc(N2CCCCC2)nc(N2CCCCC2)n1)c1ccc(F)cc1
-1.18

Moving on to the next compound: O=c1[nH]c2ccccc2c(O)c1[N+](=O)[O-]
-2.05

Also check CCn1c(=O)c([N+](=O)[O-])c(Sc2ccc(C)cc2)c2ccccc21
-0.736

# iterate: COc1ccc(CCNc2nc(N3CCOCC3)nc(N3CCOCC3)n2)cc1OC
0.627

Same question, COc1nc2ccccc2c(Sc2ccc(C)cc2)c1[N+](=O)[O-] this time
-2.73

# iterate: COCCn1c(=O)c([N+](=O)[O-])c(Sc2ccc(C)cc2)c2ccccc21
-1.69

Okay, and O=C(COc1ccc(Cl)cc1Cl)NNc1nc(N2CCOCC2)nc(N2CCOCC2)n1 ?
-1.89

Field entry: Cc1ccc(Sc2c(Sc3ccc(C)cc3)c3ccccc3n(Cc3ccccc3)c2=O)cc1
-1.23

Repeat with COc1ccc(N2CCN(c3nc(NCCc4ccc(OC)c(OC)c4)nc(N4CCOCC4)n3)CC2)cc1
-1.94

Also check Cn1c(=O)c(Sc2ccccn2)c(Sc2ccccn2)c2ccccc21
-2.24

Thanks! And COc1ccc(CCNc2nc(N3CCCC3)nc(N3CCCC3)n2)cc1OC ?
0.012

Same thing, different compound: Cc1ccc(S(=O)(=O)c2c([N+](=O)[O-])c(=O)n(C)c3ccccc23)cc1
-0.501

Try this compound too: COc1nc2ccccc2c(Cl)c1[N+](=O)[O-]
-1.96

Could you do the same for CCn1c(=O)c(Sc2ccc(C)cc2)c(Sc2ccc(C)cc2)c2ccccc21 , please?
-1.83

// repeat for CCn1c(=O)c([N+](=O)[O-])c(Cl)c2ccccc21 and report
2.55
